// data source = ChEMBL document CHEMBL3885861

Task for the reader: assign each of the following compounds its reported Mono.
Species on record: Rattus norvegicus
assay_comment: Open TG-GATES - Regimen: Daily Repeat
Type: toxicity, organism-based, Sprague-Dawley
Parameters: regimen Daily Repeat, gender Male, age 6 weeks
experimental_context: in vivo, po, 100 mg/kg, 72 h, tissue Blood, route gavage, dose level Low, time 3 day
One number for each entry, in %.

Sample answers from the record:
INSERT INTO assay_data (compound, recorded_metric, scale_unit, numeric_readout) VALUES
  ('CCOC(=O)CCC(=O)O[C@H]1[C@H](O[C@@H]2[C@@H](C)[C@H](O[C@H]3C[C@@](C)(OC)[C@@H](O)[C@H](C)O3)[C@@H](C)C(=O)O[C@H](CC)[C@@](C)(O)[C@H](O)[C@@H](C)C(=O)[C@H](C)C[C@@]2(C)O)O[C@H](C)C[C@@H]1N(C)C [ERYTHROMYCIN ETHYLSUCCINATE]', 'Mono', '%', 3),
  ('COc1ccc2[nH]c([S+]([O-])Cc3ncc(C)c(OC)c3C)nc2c1 (stereo not given) [OMEPRAZOLE]', 'Mono', '%', 3.4),
  ('COC1=CC(=O)C[C@@H](C)[C@]12Oc1c(Cl)c(OC)cc(OC)c1C2=O [GRISEOFULVIN]', 'Mono', '%', 2.4),
  ('NC(N)=Nc1nc(CSCCC(N)=NS(N)(=O)=O)cs1 [FAMOTIDINE]', 'Mono', '%', 2.6);

The record that follows has no Mono shown yet.
QUERY: Given the compound CCOc1ccc(NC(=O)CC(C)O)cc1 (stereo not given) [BUCETIN] , what is its reported Mono?
RESULT: 3.4
